molecular target: hNAMPT protein (Homo sapiens (Human)); assay: NAMPT enzyme assay (TR-FRET/HTRF, BodiPY ligand, anti 6His-Tb); type: binding; conditions: NAMPT IC50 range class; read-out: IC50
pIC50: −log10 of the molar value.
Observed property: pIC50

{"Compound": "O=C(NCc1ccc2nccn2c1)c1ccc2nc(N3CCC(O)CC3)c(-c3ccc(F)cc3)nc2c1 [Compound I-156]", "Measured": "> 7.00"}
{"Compound": "CC(C)(C)OC(=O)NCc1cccc(-c2nc3cc(C(=O)NCCCn4ccnc4)ccc3nc2-c2ccccc2)c1 [Compound I-85]", "Measured": "5.00 to 5.70"}
{"Compound": "CS(=O)(=O)N1CCN(c2nc3ccc(C(=O)NCCCn4ccnc4)cc3nc2-c2ccccc2)CC1 [Compound I-125]", "Measured": "6.30 to 7.00"}
{"Compound": "O=C(NCCCc1ncc[nH]1)c1ccc2nc(N3CCC4(CC3)COC4)c(-c3ccc(F)cc3)nc2c1 [Compound I-277]", "Measured": "> 7.00"}

* * *

molecular target: UniProt P43490; assay: NAMPT enzyme assay (TR-FRET/HTRF, BodiPY ligand, anti 6His-Tb); format: binding

{"Compound string": "O=C(NCCCn1ccnc1)c1ccc2nc(Nc3ccccc3)c(-c3ccccc3)nc2c1", "IC50": "2 to 10 µM"}

* * *

target: hNAMPT protein (Homo sapiens (Human)); assay: NAMPT enzyme assay (TR-FRET/HTRF, BodiPY ligand, anti 6His-Tb); format: binding; conditions: compound concentration 1 μM; read-out: Percent Inhibition

{"Molecule": "CCOc1ccc(F)c(-c2nc3cc(C(=O)NCCCc4ncc[nH]4)ccc3nc2-c2ccc(F)cc2)c1", "Relation sign": "=", "inhibition at 1 µM [%]": 82}
{"Molecule": "O=C(NCCCc1ncc[nH]1)c1ccc2nc(OCc3c[nH]cn3)c(-c3ccc(F)cc3)nc2c1", "Relation sign": "=", "inhibition at 1 µM [%]": 63}
{"Molecule": "CCOC(=O)CCc1ccc(-c2nc3ccc(C(=O)NCCCn4ccnc4)cc3nc2-c2ccccc2)cc1", "Relation sign": "=", "inhibition at 1 µM [%]": 84}
{"Molecule": "O=C(NCCCn1ccnc1)c1ccc2nc(N3CC4CC4C3)c(-c3ccccc3)nc2c1 (stereo not shown)", "Relation sign": "=", "inhibition at 1 µM [%]": 71}
{"Molecule": "O=C(NCCCc1ncc[nH]1)c1ccc2nc(-c3ccc(F)cc3)c(-c3ccc(F)s3)nc2c1", "Relation sign": ">", "inhibition at 1 µM [%]": 99}
{"Molecule": "O=C(c1ccc2nc(-c3ccc(F)cc3)c(-c3ccc(F)cc3)nc2c1)N1CCn2ccnc2C1", "Relation sign": "=", "inhibition at 1 µM [%]": 33}
{"Molecule": "O=C(NCCn1cncn1)c1ccc2nc(-c3ccc(F)cc3)c(-c3ccc(F)cc3)nc2c1", "Relation sign": "=", "inhibition at 1 µM [%]": 21}

* * *

Parameter: inhibition at 1 µM. Scope: all listed entries.
biological target: UniProt:P43490; test: NAMPT enzyme assay (TR-FRET/HTRF, BodiPY ligand, anti 6His-Tb); type: binding; conditions: compound concentration 1 μM; read-out: Percent Inhibition
Observed property: inhibition at 1 µM (%)

{"Compound": "CC(=O)Nc1cccc(-c2nc3ccc(C(=O)NCCCn4ccnc4)cc3nc2-c2ccccc2)c1 [Compound I-2]", "System under test": "UniProt:P43490", "Scale unit": "%", "Relation sign": "=", "Measured": 77}
{"Compound": "CN(c1nc2cc(C(=O)NCCCn3ccnc3)ccc2nc1-c1ccccc1)C1CC1 [Compound I-126]", "System under test": "UniProt:P43490", "Scale unit": "%", "Relation sign": "=", "Measured": 12}
{"Compound": "O=C(NCCCc1ncc[nH]1)c1ccc2nc(N3CCC(O)CC3)c(-c3ccc(F)cc3)nc2c1 [Compound I-213]", "System under test": "UniProt:P43490", "Scale unit": "%", "Relation sign": "=", "Measured": 99}
{"Compound": "COC1CCN(c2nc3ccc(C(=O)NCCCc4ncc[nH]4)cc3nc2-c2ccc(F)cc2)CC1 [Compound I-78]", "System under test": "UniProt:P43490", "Scale unit": "%", "Relation sign": ">", "Measured": 99}

* * *

target: UniProtKB P43490; test: NAMPT enzyme assay (TR-FRET/HTRF, BodiPY ligand, anti 6His-Tb); assay type: binding; conditions: compound concentration 1 μM; read-out: Percent Inhibition
Please mark satisfied if the recorded inhibition at 1 µM is equal to or greater than 90%, and not satisfied if it falls below.

{"Molecule": "CC(C)(C)OC(=O)NC1CCN(C2CCN(c3nc4ccc(C(=O)NCCCn5ccnc5)cc4nc3-c3ccccc3)CC2)CC1 [Compound I-74]", "System under test": "UniProtKB P43490", "Cat": "satisfied"}
{"Molecule": "NS(=O)(=O)c1ccc(-c2nc3ccc(C(=O)NCCCn4ccnc4)cc3nc2-c2ccccc2)cc1 [Compound I-145]", "System under test": "UniProtKB P43490", "Cat": "not satisfied"}
{"Molecule": "O=C(NCCCn1ccnc1)c1ccc2nc(NC3CCC3)c(-c3ccccc3)nc2c1 [Compound I-274]", "System under test": "UniProtKB P43490", "Cat": "not satisfied"}
{"Molecule": "O=C(c1ccc2nc(-c3ccc(F)cc3)c(-c3ccc(F)cc3)nc2c1)N1CCC(c2cccnc2)C1 (stereo not shown) [Compound I-29]", "System under test": "UniProtKB P43490", "Cat": "not satisfied"}
{"Molecule": "Cn1cnc(CCNC(=O)c2ccc3nc(-c4ccc(F)cc4)c(-c4ccc(F)cc4)nc3c2)c1 [Compound I-276]", "System under test": "UniProtKB P43490", "Cat": "not satisfied"}
{"Molecule": "O=C(NCCCc1ncc[nH]1)c1ccc2nc(-c3ccc(F)cc3)c(-c3ccc(Cl)cc3)nc2c1 [Compound I-361]", "System under test": "UniProtKB P43490", "Cat": "satisfied"}

* * *

biological target: hNAMPT protein (Homo sapiens (Human)); test: NAMPT enzyme assay (TR-FRET/HTRF, BodiPY ligand, anti 6His-Tb); assay type: binding; settings: compound concentration 1 μM; read-out: Percent Inhibition

{"Compound string": "Cn1cnc2cc(-c3nc4cc(C(=O)NCCCn5ccnc5)ccc4nc3-c3ccccc3)ccc21", "inhibition at 1 µM / %": 3}
{"Compound string": "O=C(c1ccc2nc(-c3ccc(F)cc3)c(-c3ccc(F)cc3)nc2c1)N1CCc2nc[nH]c2C1", "inhibition at 1 µM / %": 12}
{"Compound string": "O=C(NCCc1cnccn1)c1ccc2nc(-c3ccc(F)cc3)c(-c3ccc(F)cc3)nc2c1", "inhibition at 1 µM / %": 39}
{"Compound string": "O=C(NCCCn1ccnc1)c1ccc2nc(-c3ccccc3)c(-c3ccccc3Cl)nc2c1", "inhibition at 1 µM / %": 37}

* * *

Biological target: hNAMPT protein (Homo sapiens (Human), UniProt P43490)
Sequence (P43490 whole entry): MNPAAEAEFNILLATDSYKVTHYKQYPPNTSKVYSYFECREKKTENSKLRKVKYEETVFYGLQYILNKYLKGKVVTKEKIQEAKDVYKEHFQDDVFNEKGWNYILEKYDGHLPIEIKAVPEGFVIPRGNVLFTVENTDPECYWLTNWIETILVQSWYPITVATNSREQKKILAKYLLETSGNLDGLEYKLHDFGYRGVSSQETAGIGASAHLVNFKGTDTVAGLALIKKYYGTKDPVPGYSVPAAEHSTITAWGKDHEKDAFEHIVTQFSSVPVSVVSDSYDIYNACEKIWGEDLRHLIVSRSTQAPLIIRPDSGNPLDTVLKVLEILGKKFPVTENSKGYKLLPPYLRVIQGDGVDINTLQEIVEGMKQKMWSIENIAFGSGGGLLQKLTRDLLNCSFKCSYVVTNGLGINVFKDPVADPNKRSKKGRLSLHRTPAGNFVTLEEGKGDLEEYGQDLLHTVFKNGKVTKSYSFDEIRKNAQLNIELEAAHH
Experiment: NAMPT enzyme assay (TR-FRET/HTRF, BodiPY ligand, anti 6His-Tb)
Format: binding
Settings: NAMPT IC50 range class; read-out: IC50
From the text: As discussed above, the invention provides compounds that are useful as inhibitors of the enzyme NAMPT. The NAMPT inhibition of a compound of the invention can be measured using a variety of methods known in the art. […] The TR-FRET signal can be measured using a high throughput microplate reader (e.g., Pherastar). […] The percent inhibition value at a single concentration of compound of the invention can be calculated relative to a control treated sample. […]
pIC50: −log10 of the molar value.
Reported pIC50 by item:

{"Compound string": "CN(C)c1nc2ccc(C(=O)NCCc3cncn3C)cc2nc1-c1ccc(F)cc1", "pIC50": "6.00 to 6.30"}
{"Compound string": "O=C(NCCCn1ccnc1)c1ccc2nc(-c3ccccc3)c(N3CCCCC3)nc2c1", "pIC50": "5.00 to 5.70"}
{"Compound string": "N#Cc1cc(-c2nc3cc(C(=O)NCCCc4ncc[nH]4)ccc3nc2-c2ccc(F)cc2)ccc1Cl", "pIC50": "6.30 to 7.00"}
{"Compound string": "CC(C)(C)OC(=O)N1CCC(C2CCN(c3nc4ccc(C(=O)NCCCn5ccnc5)cc4nc3-c3ccccc3)CC2)CC1", "pIC50": "6.30 to 7.00"}
{"Compound string": "O=C(c1ccc2nc(-c3ccc(F)cc3)c(-c3ccc(F)cc3)nc2c1)N1CCc2nc[nH]c2C1", "pIC50": "5.00 to 5.70"}
{"Compound string": "COc1cc(-c2nc3cc(C(=O)NCc4ccc5nccn5c4)ccc3nc2OC(C)C)c(F)cn1", "pIC50": "6.30 to 7.00"}
{"Compound string": "O=C(NCCCc1ncc[nH]1)c1ccc2nc(OCc3ccsc3)c(-c3ccc(F)cc3)nc2c1", "pIC50": "> 7.00"}
{"Compound string": "O=C(NCCCc1ncc[nH]1)c1ccc2nc(N3CCCCC3)c(-c3ccc(F)cc3)nc2c1", "pIC50": "> 7.00"}
{"Compound string": "NC(=O)c1cccc(-c2nc3cc(C(=O)NCCCn4ccnc4)ccc3nc2-c2ccccc2)c1", "pIC50": "6.30 to 7.00"}
{"Compound string": "Cn1cc2c(n1)CN(c1nc3ccc(C(=O)NCCCn4ccnc4)cc3nc1-c1ccccc1)CC2", "pIC50": "6.30 to 7.00"}
{"Compound string": "O=C(NCCCc1ncc[nH]1)c1ccc2nc(OCc3ccc(Cl)cc3)c(-c3ccc(F)cc3)nc2c1", "pIC50": "6.30 to 7.00"}
{"Compound string": "O=C(NCCCc1ncc[nH]1)c1ccc2nc(C3CC3)c(-c3ccc(F)cc3)nc2c1", "pIC50": "6.30 to 7.00"}
{"Compound string": "CCN(CC)c1nc2ccc(C(=O)NCCCn3ccnc3)cc2nc1-c1ccccc1", "pIC50": "6.30 to 7.00"}
{"Compound string": "O=C(NCCCc1ncc[nH]1)c1ccc2nc(OCc3cn[nH]c3)c(-c3ccc(F)cc3)nc2c1", "pIC50": "> 7.00"}
{"Compound string": "O=C(NCCc1cn2c(n1)SCC2)c1ccc2nc(-c3ccc(F)cc3)c(-c3ccc(F)cc3)nc2c1", "pIC50": "5.00 to 5.70"}
{"Compound string": "O=C(NCCCn1ccnc1)c1ccc2nc(-c3ccccc3)c(-c3cncnc3)nc2c1", "pIC50": "5.00 to 5.70"}
{"Compound string": "O=C(NCCCc1cccnc1)c1ccc2nc(-c3ccc(F)cc3)c(-c3ccc(F)cc3)nc2c1", "pIC50": "6.30 to 7.00"}
{"Compound string": "O=C(NCc1ccc2[nH]cnc2c1)c1ccc2nc(N3CCOCC3)c(-c3ccc(F)cc3)nc2c1", "pIC50": "6.00 to 6.30"}
{"Compound string": "Cn1cc(CCOc2nc3ccc(C(=O)NCCCc4ncc[nH]4)cc3nc2-c2ccc(F)cc2)cn1", "pIC50": "> 7.00"}
{"Compound string": "O=C(NCCCn1ccnc1)c1ccc2nc(-c3cn[nH]c3)c(-c3ccccc3)nc2c1", "pIC50": "6.00 to 6.30"}
{"Compound string": "CCc1ccc(-c2nc3cc(C(=O)NCCCc4ncc[nH]4)ccc3nc2-c2ccc(F)cc2)cc1", "pIC50": "6.00 to 6.30"}
{"Compound string": "COc1cccc(-c2nc3cc(C(=O)NCCc4cccnc4)ccc3nc2Cl)c1", "pIC50": "5.70 to 6.00"}
{"Compound string": "Cn1cccc1-c1nc2ccc(C(=O)NCCCn3ccnc3)cc2nc1-c1ccccc1", "pIC50": "6.00 to 6.30"}
{"Compound string": "O=C(NCCCn1ccnc1)c1ccc2nc(N3Cc4ccccc4C3)c(-c3ccccc3)nc2c1", "pIC50": "6.30 to 7.00"}
{"Compound string": "O=C(NCCCn1ccnc1)c1ccc2nc(N3CCCCC3)c(-c3ccccc3)nc2c1", "pIC50": "> 7.00"}
{"Compound string": "O=C(c1ccc2nc(-c3ccc(F)cc3)c(-c3ccc(F)cc3)nc2c1)N1CCc2nocc2C1", "pIC50": "5.00 to 5.70"}
{"Compound string": "O=C(NCCCn1ccnc1)c1ccc2nc(-c3ccccc3)c(-c3cccs3)nc2c1", "pIC50": "> 7.00"}
{"Compound string": "CC(C)(C)OC(=O)NCc1ccccc1-c1nc2cc(C(=O)NCCCn3ccnc3)ccc2nc1-c1ccccc1", "pIC50": "5.00 to 5.70"}
{"Compound string": "O=C(NCCCc1ncc[nH]1)c1ccc2nc(OCC3CCCCC3)c(-c3ccc(F)cc3)nc2c1", "pIC50": "> 7.00"}
{"Compound string": "N#Cc1ccc(Cl)c(-c2nc3cc(C(=O)NCCCc4ncc[nH]4)ccc3nc2-c2ccc(F)cc2)c1", "pIC50": "> 7.00"}
{"Compound string": "CN(CCn1ccnc1)C(=O)c1ccc2nc(-c3ccc(F)cc3)c(-c3ccc(F)cc3)nc2c1", "pIC50": "5.00 to 5.70"}
